# System: primary human hepatic stellate cells (donor 1)
# measurement-description: scaled lipid accumulation score (0 = DMSO-like, 1 = nortriptyline-like); higher = stronger HSC inactivation (lipid re-accumulation), active = hit call of the paper
# measurement-parameters: library stock concentration: 10 mM; 48 h
Counter-ions that a name gives are not always drawn. The whole screen tested about 5,800 compounds, of which about 620 (11%) showed activity. The list comes from a sample in which actives are over-represented; it also holds close analogues and randomly drawn compounds.
value-type: scaled lipid accumulation score

# lookup: scaled lipid accumulation score of CC1(C)S[C@@H]2[C@H](NC(=O)COc3ccccc3)C(=O)N2[C@H]1C(=O)O
≤ 0 (inactive)

What would you report for CCCCCCNC(=O)Nc1ccc(S(=O)(=O)Nc2ccc(CCNC[C@H](O)COc3ccc(O)cc3)cc2)cc1 ?
0.462 (inactive)

What would you report for COc1cc2c(cc1O)[C@@H](Cc1ccc(O)cc1)[N+](C)(C)CC2 [Magnocurarine iodide] ?
0.116 (inactive)

What would you report for COC1CCC(C(=O)c2ccc3nc4c(cc3c2)CCCO4)CC1 (stereo not given) ?
≤ -0.001 (inactive)

What would you report for C[C@@H](Oc1cc(-c2cnn(C3CCNCC3)c2)cnc1N)c1c(Cl)ccc(F)c1Cl ?
0.863 (active)

What would you report for COc1cc2nc(N(C)CCCNC(=O)C3CCCO3)nc(N)c2cc1OC (stereo not given) ?
≤ 0 (inactive)

What would you report for CC(=O)OCC(=O)NCCCOc1cccc(CN2CCCCC2)c1 [Roxatidine Acetate HCl] ?
≤ 0 (inactive)

What would you report for CC(C)(C)NCC(O)COc1cccc2[nH]c(=O)[nH]c12 (stereo not given) ?
≤ -0.047 (inactive)

What would you report for O=C1c2c(O)cc(CO)cc2C(OC2OC(CO)C(O)C(O)C2O)c2cccc(OC3OC(CO)C(O)C(O)C3O)c21 (stereo not given) [CASANTHRANOL [cascaroside A shown]] ?
≤ 0 (inactive)

What would you report for CC(C(=O)O)c1ccc(CC2CCCC2=O)cc1 (stereo not given) ?
0.127 (inactive)

What would you report for CNC(=O)c1ccccc1Sc1ccc2c(/C=C/c3ccccn3)n[nH]c2c1 ?
0.024 (inactive)

What would you report for CC(C)NC[C@H](O)COc1cccc2[nH]ccc12 [(S)-(-)-Pindolol] ?
0.001 (inactive)

What would you report for COCCCN1CCC(NC(=O)c2cc(Cl)c(N)c3c2OCC3)CC1 [Prucalopride Succinat] ?
0.03 (inactive)

What would you report for COc1cc2nc(N3CCN(C(=O)C4COc5ccccc5O4)CC3)nc(N)c2cc1OC (stereo not given) [Doxazosin mesylate] ?
0.85 (inactive)

What would you report for Cc1cc(C(N)=O)ccc1-n1c(CCC(=O)O)ccc1-c1ccc(-n2ccnc2)cc1 ?
≤ 0 (inactive)

What would you report for CC(=O)OCC(=O)NCCCOc1cccc(CN2CCCCC2)c1 ?
≤ 0 (inactive)

What would you report for C=C1C(=O)OC2CC1C(OC(C)=O)C/C(C)=C/CC/C(C)=C/CC[C@]2(C)O (stereo not given in full) [Crassin acetate] ?
1.04 (active)

What would you report for Cc1cccc(-c2nn3c(c2-c2ccnc4ccc(C(N)=O)cc24)CCC3)n1 ?
≤ 0 (inactive)

What would you report for COc1cc2nc(N3CCN(C(=O)C4CCCO4)CC3)nc(N)c2cc1OC (stereo not given) ?
0.162 (inactive)

What would you report for COc1ccccc1OCC(O)COC(N)=O (stereo not given) ?
≤ 0 (inactive)

What would you report for CNC(=O)[C@H](Cc1c[nH]c2ccccc12)NC(=O)[C@@H](CC(=O)NO)CC(C)C ?
≤ 0 (inactive)

What would you report for O=C(O)Cc1cccc(OCCCN(Cc2cccc(C(F)(F)F)c2Cl)CC(c2ccccc2)c2ccccc2)c1 [GW 3965 hydrochloride] ?
≤ -0.001 (inactive)

What would you report for Nc1c(CC(=O)O)cccc1C(=O)c1ccccc1 [Amfenac Sodium Monohydrate] ?
0.019 (inactive)

What would you report for CC(Oc1cc(-c2cnn(C3CCNCC3)c2)cnc1N)c1c(Cl)ccc(F)c1Cl [(S)-crizotinib] ?
0.396 (inactive)

What would you report for CC#CCOC(=O)C1=CCCN(C)C1 [Arecaidine but-2-ynyl ester tosylate] ?
≤ 0 (inactive)

What would you report for CC1COCCN1c1cc(C2(S(C)(=O)=O)CC2)nc(-c2cccc3[nH]ccc23)n1 (stereo not given) ?
≤ -0.001 (inactive)

What would you report for O=C(O)/C=C\C(=O)O.O=C(O)/C=C\C(=O)O.c1cc(CN2CCCCC2)cc(OCCCNc2nc3ccccc3s2)c1 ?
1.03 (active)

What would you report for O=[N+]([O-])c1cn2c(n1)OC[C@@H](OCc1ccc(OC(F)(F)F)cc1)C2 ?
≤ 0 (inactive)

What would you report for CC(C)NCC(O)COc1cccc2[nH]ccc12 (stereo not given) ?
≤ 0 (inactive)

What would you report for Cc1cncc(CN2CCC(=C3c4ccc(Cl)cc4CCc4cccnc43)CC2)c1.O=C(O)C=CC(=O)O [Rupatadine Fumarate] ?
0.862 (active)

What would you report for c1ccc2sc(N3CCN(Cc4ccc5c(c4)OCO5)CC3)nc2c1 [2-[1-(4-Piperonyl)piperazinyl]benzothiazole] ?
≤ 0 (inactive)

What would you report for O=C(O)/C=C\C(=O)O.O=C(O)/C=C\C(=O)O.c1cc(CN2CCCCC2)cc(OCCCNc2nc3ccccc3s2)c1 [Zolantidine dimaleate] ?
1.5 (active)
